Cited source for all entries: ChEMBL document CHEMBL1961873

Recorded inhibition for the following compounds
target: Serine/threonine-protein kinase Chk2 (Homo sapiens) (UniProt O96017); details: at 1 µM;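 also: reported value is the mean inhibition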
Sequence (O96017 whole entry): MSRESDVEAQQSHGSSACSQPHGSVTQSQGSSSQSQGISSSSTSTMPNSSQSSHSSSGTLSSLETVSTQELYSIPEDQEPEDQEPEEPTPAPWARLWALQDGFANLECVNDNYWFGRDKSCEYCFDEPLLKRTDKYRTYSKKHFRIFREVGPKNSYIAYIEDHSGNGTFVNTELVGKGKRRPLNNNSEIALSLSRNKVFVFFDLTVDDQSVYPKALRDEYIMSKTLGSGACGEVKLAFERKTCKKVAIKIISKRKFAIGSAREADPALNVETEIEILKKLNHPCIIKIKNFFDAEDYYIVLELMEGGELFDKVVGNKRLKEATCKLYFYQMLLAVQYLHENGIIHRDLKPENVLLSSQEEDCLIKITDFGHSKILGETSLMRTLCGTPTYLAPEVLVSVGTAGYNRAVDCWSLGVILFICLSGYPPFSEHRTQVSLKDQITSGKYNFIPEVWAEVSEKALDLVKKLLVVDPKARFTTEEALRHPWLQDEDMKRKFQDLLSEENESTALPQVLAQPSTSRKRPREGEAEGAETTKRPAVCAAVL
Give the quantity in %, number only.

Ask | What inhibition value was documented for this compound, CS(=O)(=O)CCNCc1cc(-c2cc3c(Nc4ccc(OCc5cccc(F)c5)c(Cl)c4)ncnc3s2)cs1 ?
Reply | 11.2

Ask | Repeat with NC(=O)Cc1ccccc1Oc1nccc(-c2c(-c3ccc(F)cc3)ncn2C2CCNCC2)n1
Reply | 6.05

Ask | Repeat with O=C1Nc2ccccc2/C1=C/Nc1ccc(-n2cncn2)cc1
Reply | 14.9

* * *

Recorded inhibition for the following compounds
molecular target: Serine/threonine-protein kinase TBK1 (Homo sapiens) (UniProt Q9UHD2); conditions: at 0.1 µM;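 also: values are the mean TBK1 inhibition, taken from the GSK PKIS screening data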
Sequence (Q9UHD2 whole entry): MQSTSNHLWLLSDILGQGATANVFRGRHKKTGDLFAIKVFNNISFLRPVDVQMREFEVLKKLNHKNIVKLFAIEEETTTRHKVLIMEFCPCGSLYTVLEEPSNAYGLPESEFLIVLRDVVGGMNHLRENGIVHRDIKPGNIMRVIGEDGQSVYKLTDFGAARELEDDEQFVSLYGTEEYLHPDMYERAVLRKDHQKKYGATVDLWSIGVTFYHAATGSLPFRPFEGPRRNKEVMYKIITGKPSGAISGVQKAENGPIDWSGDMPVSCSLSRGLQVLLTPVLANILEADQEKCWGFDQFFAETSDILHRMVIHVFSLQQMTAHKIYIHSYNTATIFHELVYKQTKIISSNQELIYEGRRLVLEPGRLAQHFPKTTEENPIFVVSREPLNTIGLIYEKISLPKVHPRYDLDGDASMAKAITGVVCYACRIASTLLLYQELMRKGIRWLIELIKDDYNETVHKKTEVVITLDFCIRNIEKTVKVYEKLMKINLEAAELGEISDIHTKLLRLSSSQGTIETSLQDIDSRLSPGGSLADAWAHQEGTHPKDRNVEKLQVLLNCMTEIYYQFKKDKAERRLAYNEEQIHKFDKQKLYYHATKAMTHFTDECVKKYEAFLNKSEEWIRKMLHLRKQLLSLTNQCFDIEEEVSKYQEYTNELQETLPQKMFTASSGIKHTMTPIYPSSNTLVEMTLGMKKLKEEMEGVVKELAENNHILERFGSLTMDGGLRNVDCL
Give the quantity in %, number only.

| molecule | endpoint-value |
| --- | --- |
| CS(=O)(=O)CCNCc1ccc(-c2ccc3ncnc(Nc4ccc(OCc5ccccc5)c(Br)c4)c3c2)o1 | 1.02 |
| N#Cc1ccc(Oc2nccc(-c3c(-c4ccc(F)cc4)ncn3C3CCNCC3)n2)cc1 | 1.69 |
| NS(=O)(=O)c1ccc(N/N=C2\C(=O)Nc3ccc(-c4cnco4)cc32)cc1 | 7.17 |
| Clc1ccc(CNc2nccc(-c3cnn4ncccc34)n2)cc1 | 0.1 |

Ask | What inhibition value was documented for this compound, COc1cc(N2CCN(C(C)C)CC2)ccc1Nc1nc(Nc2ccc(F)cc2C(=O)NC[C@@H](O)CO)c2cc[nH]c2n1 ?
Reply | 1.74

Ask | Repeat with NC(=O)c1cc(-c2ccncc2)cc(-c2ccccc2)c1N
Reply | 3.5

Ask | Repeat with COc1ccc(C2=C(N3CCc4ccccc43)C(=O)NC2=O)cc1
Reply | 0.88

Ask | Repeat with O=C(Nc1n[nH]c2cc(-c3ccccc3)ccc12)C1CC1
Reply | 1.84

Ask | Repeat with Fc1ccc(-c2ncn(CCCN3CCOCC3)c2-c2ccncc2)cc1
Reply | 1.21

Ask | Repeat with O=C1NC(=O)C(c2cccc(Cl)c2)=C1Nc1ccc(Cl)c(C(=O)O)c1
Reply | 2.24

Ask | Repeat with Cc1nnc(-c2ccc(C)c(-c3ccc(C(=O)NCc4ccc(Cl)cc4)cc3)c2)o1
Reply | 1.16

* * *

system: Proto-oncogene tyrosine-protein kinase receptor Ret (Homo sapiens), P07949 [V804L]; conditions: at 1 µM
Sequence (P07949 whole entry V804L): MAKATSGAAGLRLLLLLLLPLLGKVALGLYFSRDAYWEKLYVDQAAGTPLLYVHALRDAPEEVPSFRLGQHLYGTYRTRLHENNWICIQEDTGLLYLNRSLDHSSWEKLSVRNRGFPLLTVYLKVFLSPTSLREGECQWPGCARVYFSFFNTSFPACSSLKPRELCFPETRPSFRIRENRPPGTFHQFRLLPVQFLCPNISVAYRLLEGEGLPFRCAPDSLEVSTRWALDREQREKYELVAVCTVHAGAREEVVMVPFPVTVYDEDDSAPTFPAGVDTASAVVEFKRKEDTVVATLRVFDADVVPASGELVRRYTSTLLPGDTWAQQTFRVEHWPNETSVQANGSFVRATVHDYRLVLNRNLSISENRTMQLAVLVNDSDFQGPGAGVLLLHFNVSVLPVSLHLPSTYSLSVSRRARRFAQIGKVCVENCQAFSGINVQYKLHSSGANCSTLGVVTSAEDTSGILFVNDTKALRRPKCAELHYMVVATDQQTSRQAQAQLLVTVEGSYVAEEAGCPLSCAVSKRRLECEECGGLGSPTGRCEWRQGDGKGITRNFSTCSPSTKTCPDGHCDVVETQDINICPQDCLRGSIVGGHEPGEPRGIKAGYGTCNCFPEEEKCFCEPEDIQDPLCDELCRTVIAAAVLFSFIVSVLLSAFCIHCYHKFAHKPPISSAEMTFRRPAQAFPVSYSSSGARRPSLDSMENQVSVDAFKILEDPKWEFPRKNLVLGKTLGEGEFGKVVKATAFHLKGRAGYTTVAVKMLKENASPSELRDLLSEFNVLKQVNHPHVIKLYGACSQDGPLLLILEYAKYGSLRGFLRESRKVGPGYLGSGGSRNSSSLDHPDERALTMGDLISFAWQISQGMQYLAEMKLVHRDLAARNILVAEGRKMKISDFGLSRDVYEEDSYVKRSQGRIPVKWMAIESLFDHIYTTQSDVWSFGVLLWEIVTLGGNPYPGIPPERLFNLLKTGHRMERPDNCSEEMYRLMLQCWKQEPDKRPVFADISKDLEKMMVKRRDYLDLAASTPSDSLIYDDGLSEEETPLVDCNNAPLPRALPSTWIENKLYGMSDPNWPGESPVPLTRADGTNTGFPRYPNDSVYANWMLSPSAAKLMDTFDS
inhibition of 20% or higher: 1.0. Under 20%: 0.0.

Answered examples (4):
| molecule | group |
| --- | --- |
| CN1CCN(CCCNc2nc3ccc(Oc4ccc(NC(=O)Nc5cc(C(F)(F)F)ccc5F)cc4)cc3[nH]2)CC1 | 1.0 |
| O=C(NCC1CC1)c1ccc(-c2cccc(C(=O)NC3CC3)c2)cc1 | 0.0 |
| C[C@@H](Oc1cc(-n2cnc3ccc(OC4CCN(C)CC4)cc32)sc1C(N)=O)c1ccccc1Cl | 0.0 |
| COc1cc(Nc2ncc(-c3ccccc3)o2)cc(OC)c1OC | 0.0 |

# evaluate next
Ask | Evaluate c1ccc(Oc2ccc(Nc3ncc(-c4ccccc4)o3)cc2)cc1 : inhibition at minimum 20%?
Reply | 0.0

* * *

target: Tyrosine-protein kinase Yes (Homo sapiens); conditions: at 0.1 µM;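 also: mean inhibition of YES, from the GSK PKIS dataset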
measure: inhibition (%)
Give the quantity in %, number only.

Reference set (3 entries):
| compound | study-target | measure | endpoint-value |
| --- | --- | --- | --- |
| COc1cc2ncn(-c3cc(OCCc4ccccc4)c(C(N)=O)s3)c2cc1OC | Tyrosine-protein kinase Yes (Homo sapiens) | inhibition | 1.03 |
| Fc1ccc(-c2ncn(CCCN3CCOCC3)c2-c2ccncc2)cc1 | Tyrosine-protein kinase Yes (Homo sapiens) | inhibition | -0.25 |
| COc1ccc2cc(-c3c(-c4ccncc4)nc(-c4ccc([S+](C)[O-])cc4C)n3C)ccc2c1 (stereo not given) | Tyrosine-protein kinase Yes (Homo sapiens) | inhibition | 3.84 |

Ask | What inhibition value was documented for this compound, CNC(=O)c1cncc(/C=C/c2c(C)cccc2C)c1 ?
Reply | 6.81

Ask | Repeat with c1ccc(-c2n[nH]cc2-c2ccnc(-c3ccc(OCCN4CCOCC4)cc3)c2)nc1
Reply | -1.99
